Assay: qHTS RealTime-Glo MT Cell Viability Assay in HepG2 cells - 40 hour (AID 1224870); note: nearly all actives have a fitted effect of over 50% in size
Conditions: RealTime-Glo luminescence; series mostly up to 76.8 µM
Inconclusive results are not listed. The source made the active and inactive calls. Calls come from the whole dose curve; as a rule, active = well fitted cell-killing curve with a large enough effect in the repeat runs; inconclusive = weak or mixed curves, or effect the other way; inactive = flat fitted curve, though single readings scatter.
Result category, one only: TRUE (active), FALSE (inactive)

{"COMPOUND": "CC(C)COCC(CN(Cc1ccccc1)c1ccccc1)N1CCCC1 (stereo not drawn)", "GROUP_LABEL": "TRUE"}
{"COMPOUND": "COC(=O)CCS", "GROUP_LABEL": "FALSE"}
{"COMPOUND": "CC(=O)NC1(c2cccc(F)c2)CCN(CC[C@@]2(c3ccc(Cl)c(Cl)c3)CN(c3ccccc3)C(=O)CO2)CC1", "GROUP_LABEL": "TRUE"}
{"COMPOUND": "CCCCN(CCCC)C(C(N)=O)c1ccc(OC)cc1 (stereo not drawn)", "GROUP_LABEL": "FALSE"}
{"COMPOUND": "c1ccc(C[n+]2cccc3ccccc32)cc1", "GROUP_LABEL": "FALSE"}
{"COMPOUND": "CC(C)c1nc(CN(C)C(=O)N[C@H](C(=O)N[C@@H](Cc2ccccc2)C[C@H](O)[C@H](Cc2ccccc2)NC(=O)OCc2cncs2)C(C)C)cs1", "GROUP_LABEL": "FALSE"}
{"COMPOUND": "O=C1NC(=O)c2cc([N+](=O)[O-])ccc21", "GROUP_LABEL": "FALSE"}
{"COMPOUND": "CCC(=O)OC", "GROUP_LABEL": "FALSE"}

[in] I'd appreciate the recorded outcome for O=c1c(O)c(-c2ccc(O)cc2)oc2cc(O)cc(O)c12 from this test.
[out] FALSE

* * *

Assay: qHTS assay to identify small molecule antagonists of the vitamin D receptor (VDR) signaling pathway - cell viability counter screen (AID 743225); note: nearly all actives have a fitted effect of over 50% in size
Settings: VDR-bla HEK293T viability, CellTiter-Glo luminescence, 16 h; series mostly up to 61 µM
Source text: U.S. Tox21 Program National Center for Advancing Translational Sciences [NCATS] NIH Chemical Genomics Center [NCGC] U.S. Environmental Protection Agency [EPA] National Institutes of Environmental Health Sciences [NIEHS] National Toxicology Program [NTP] U.S. Food and Drug Administration [FDA] Tox21 Assay Overview: The vitamin D receptor (VDR), a member of nuclear hormone receptor superfamily, plays a critical role in calcium homeostasis and bone metabolism. […]
Results filed as inconclusive are left out. The source made the active and inactive calls. Calls come from the whole dose curve; as a rule, active = well fitted cell-killing curve with a large enough effect in the repeat runs; inconclusive = weak or mixed curves, or effect the other way; inactive = no such curve, though single readings can be large or run the other way.
Result category, one only: active, inactive

{"COMPOUND": "O=C1NCCN1CCO", "GROUP_LABEL": "inactive"}

[in] I'd appreciate the recorded outcome for C1COC1 from this test.
[out] inactive

[in] I'd appreciate the recorded outcome for Oc1cccc(Nc2ccccc2)c1 from this test.
[out] inactive

[in] I'd appreciate the recorded outcome for COc1cc(Nc2c(C#N)cnc3cc(OCCCN4CCN(C)CC4)c(OC)cc23)c(Cl)cc1Cl from this test.
[out] active

* * *

Molecular target: Voltage-gated inwardly rectifying potassium channel KCNH2 (Homo sapiens) (UniProt Q12809)
Sequence (Q12809 whole entry, looked up): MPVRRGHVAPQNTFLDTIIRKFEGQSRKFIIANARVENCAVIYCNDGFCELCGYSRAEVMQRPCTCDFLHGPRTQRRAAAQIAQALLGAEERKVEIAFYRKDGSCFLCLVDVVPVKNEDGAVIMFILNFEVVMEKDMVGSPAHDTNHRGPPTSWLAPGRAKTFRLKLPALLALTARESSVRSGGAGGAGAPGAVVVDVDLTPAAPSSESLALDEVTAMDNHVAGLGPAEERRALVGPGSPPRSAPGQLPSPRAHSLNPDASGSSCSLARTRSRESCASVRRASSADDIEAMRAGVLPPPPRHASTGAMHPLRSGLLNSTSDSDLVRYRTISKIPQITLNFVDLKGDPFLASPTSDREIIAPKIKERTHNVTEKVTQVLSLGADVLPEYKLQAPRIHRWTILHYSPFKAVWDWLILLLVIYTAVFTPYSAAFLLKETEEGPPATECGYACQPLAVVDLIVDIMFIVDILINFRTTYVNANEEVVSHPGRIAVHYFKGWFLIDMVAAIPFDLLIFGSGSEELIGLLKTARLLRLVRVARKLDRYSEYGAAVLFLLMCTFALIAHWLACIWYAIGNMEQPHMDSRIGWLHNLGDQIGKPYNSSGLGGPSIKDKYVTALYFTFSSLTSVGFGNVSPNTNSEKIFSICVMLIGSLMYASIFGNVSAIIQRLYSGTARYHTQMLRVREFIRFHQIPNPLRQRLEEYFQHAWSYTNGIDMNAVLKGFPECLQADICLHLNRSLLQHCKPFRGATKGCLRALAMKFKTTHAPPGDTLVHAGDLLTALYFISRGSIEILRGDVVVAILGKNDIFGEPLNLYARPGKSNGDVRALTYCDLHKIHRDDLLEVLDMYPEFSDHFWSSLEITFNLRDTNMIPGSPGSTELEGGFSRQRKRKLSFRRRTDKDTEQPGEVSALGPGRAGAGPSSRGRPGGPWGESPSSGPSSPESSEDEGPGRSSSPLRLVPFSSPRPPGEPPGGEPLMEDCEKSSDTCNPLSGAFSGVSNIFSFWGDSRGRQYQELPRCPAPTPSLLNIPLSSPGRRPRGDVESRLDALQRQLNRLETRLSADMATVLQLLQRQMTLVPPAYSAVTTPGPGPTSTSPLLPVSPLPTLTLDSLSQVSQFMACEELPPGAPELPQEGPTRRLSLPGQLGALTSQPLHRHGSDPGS
Assay: Human Ether-a-go-go-Related Gene (hERG) channel small molecule antagonists: fluorescence cell-based qHTS assay (AID 1671200); note: nearly all actives have a fitted effect of over 50% in size
Conditions: hERG-U2OS cells, FluxOR thallium flux fluorescence; series mostly up to 76.8 µM
Source text: National Center for Advancing Translational Sciences [NCATS] U.S. Environmental Protection Agency [EPA] National Institutes of Environmental Health Sciences [NIEHS] National Toxicology Program [NTP] U.S. Food and Drug Administration [FDA] Mutations in the hERG channel cause Long QT (LQT) syndrome. LQT syndrome is a cardiac disorder which can cause ventricle arrhythmia and sudden death. Additionally, compounds which block the hERG channel can cause acquired LQT syndrome. […]
Results filed as inconclusive are left out. Calls of active or inactive are those of the source. The call rests on the fitted dose curve; in most records, active means well fitted inhibition curve with a large enough effect in the repeat runs; inconclusive means weak or mixed curves; inactive means flat fitted curve, though single readings scatter.
Result category, one only: t for active, f for inactive

{"COMPOUND": "O=[N+]([O-])c1ccc(Nc2ccc(Nc3ccccc3)c(S(=O)(=O)O)c2)c([N+](=O)[O-])c1", "GROUP_LABEL": "f"}

[in] I'd appreciate the recorded outcome for Clc1ccc(Nc2nnc(Cc3ccncc3)c3ccccc23)cc1 from this test.
[out] f

[in] I'd appreciate the recorded outcome for CCCCC(CC)CN (stereo not drawn) from this test.
[out] f

[in] I'd appreciate the recorded outcome for C[C@@H](O[C@H]1OCCN(Cc2n[nH]c(=O)[nH]2)[C@H]1c1ccc(F)cc1)c1cc(C(F)(F)F)cc(C(F)(F)F)c1 from this test.
[out] t

[in] I'd appreciate the recorded outcome for C[C@@H](O)[C@H]1C(=O)N2C(C(=O)O)=C([C@H]3CCCO3)S[C@H]12 from this test.
[out] f

[in] I'd appreciate the recorded outcome for Nc1ncnc2c1ncn2[C@H]1CC[C@@H](CO)O1 from this test.
[out] f

[in] I'd appreciate the recorded outcome for CC=C(Cl)Cl from this test.
[out] f

[in] I'd appreciate the recorded outcome for O=C1C(=O)c2ccccc2C(O)=C1C1CCC(c2ccc(Cl)cc2)CC1 (stereo not drawn) from this test.
[out] f

* * *

Target: Nuclear receptor subfamily 1 group I member 3 (Homo sapiens) (UniProt Q14994)
Sequence (Q14994 whole entry, looked up): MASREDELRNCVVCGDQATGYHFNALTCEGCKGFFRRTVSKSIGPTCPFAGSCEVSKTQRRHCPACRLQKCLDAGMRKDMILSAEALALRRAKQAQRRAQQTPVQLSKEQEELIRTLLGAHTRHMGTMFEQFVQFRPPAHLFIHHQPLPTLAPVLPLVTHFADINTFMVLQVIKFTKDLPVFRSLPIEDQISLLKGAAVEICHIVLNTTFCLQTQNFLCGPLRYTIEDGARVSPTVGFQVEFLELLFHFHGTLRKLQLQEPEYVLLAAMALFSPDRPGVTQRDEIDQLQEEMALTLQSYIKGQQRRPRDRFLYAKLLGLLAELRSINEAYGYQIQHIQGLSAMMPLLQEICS
Test: qHTS assay to identify small molecule antagonists of the constitutive androstane receptor (CAR) signaling pathway (AID 1224838);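 note: HepG2 cells stably expressing hCAR with CYP2B6 luciferase reporter stimulated by CITCO; nearly all actives have a fitted effect of over 40% in size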
Conditions: HepG2-CYP2B6-hCAR luciferase, CITCO-stimulated, 24 h; series mostly up to 92.4 µM
Inconclusive results are not listed. The source made the active and inactive calls. Calls come from the whole dose curve; as a rule, active = well fitted inhibition curve with a large enough effect in the repeat runs; inconclusive = weak or mixed curves, or effect the other way; inactive = no such curve, though single readings can be large or run the other way.
Result category, one only: true = active, false = inactive

[in] I'd appreciate the recorded outcome for CCC1NC(=O)c2cc(S(N)(=O)=O)c(Cl)cc2N1 (stereo not drawn) from this test.
[out] false

[in] I'd appreciate the recorded outcome for COC(=O)c1nc(Cl)c(Cl)nc1N from this test.
[out] true

[in] I'd appreciate the recorded outcome for C=C(C)C(=O)OCCOCCOC(=O)C(=C)C from this test.
[out] false

[in] I'd appreciate the recorded outcome for Nc1cccc2c1CN(C1CCC(=O)NC1=O)C2=O (stereo not drawn) from this test.
[out] false

[in] I'd appreciate the recorded outcome for CC(=O)OCCN(CCOC(C)=O)c1ccc(N=Nc2ccc([N+](=O)[O-])cc2C#N)cc1 from this test.
[out] false

[in] I'd appreciate the recorded outcome for CC1(C)O[C@@H]2C[C@H]3[C@@H]4C[C@H](F)C5=CC(=O)C=C[C@]5(C)[C@H]4[C@@H](O)C[C@]3(C)[C@]2(C(=O)CO)O1 from this test.
[out] false

[in] I'd appreciate the recorded outcome for CCCCC(CC)COP(=O)(O)O (stereo not drawn) from this test.
[out] false

[in] I'd appreciate the recorded outcome for CC[C@]1(O)C[C@H]2CN(CCc3c([nH]c4ccccc34)[C@@](C(=O)OC)(c3cc4c(cc3OC)N(C=O)[C@H]3[C@@](O)(C(=O)OC)[C@H](OC(C)=O)[C@]5(CC)C=CCN6CC[C@]43[C@@H]65)C2)C1 from this test.
[out] true

[in] I'd appreciate the recorded outcome for Cc1ccc(OC(=O)c2ccccc2O)cc1 from this test.
[out] false

[in] I'd appreciate the recorded outcome for CS(=O)(=O)c1ccc(-c2cn3ccccc3n2)cc1 from this test.
[out] false

* * *

Experiment: qHTS assay for identifying genotoxic compounds that show differential cytotoxicity against isogenic chicken DT40 cell lines with known DNA damage response pathways - wild type cell line (AID 743012); note: nearly all actives have a fitted effect of over 60% in size
Conditions: DT40 wild type chicken cells viability, CellTiter-Glo, 40 h; series mostly up to 68.4 µM
Inconclusive results are not listed. Calls of active or inactive are those of the source. The call rests on the fitted dose curve; in most records, active means well fitted cell-killing curve with a large enough effect in the repeat runs; inconclusive means weak or mixed curves, or effect the other way; inactive means no such curve, though single readings can be large or run the other way.
Result category, one only: 1.0 for active, 0.0 for inactive

Before answering, review these 2 worked examples.
{"COMPOUND": "Cc1cc(O)ccc1O", "GROUP_LABEL": 0.0}
{"COMPOUND": "Cc1ccc2c(Br)cc(Br)c(O)c2n1", "GROUP_LABEL": 1.0}

[in] I'd appreciate the recorded outcome for NC(=O)c1ccncc1 from this test.
[out] 0.0

[in] I'd appreciate the recorded outcome for CC(=O)NC1(c2cccc(F)c2)CCN(CC[C@@]2(c3ccc(Cl)c(Cl)c3)CN(c3ccccc3)C(=O)CO2)CC1 from this test.
[out] 1.0

[in] I'd appreciate the recorded outcome for CCC(C)COC(C)=O (configuration not stated) from this test.
[out] 0.0

[in] I'd appreciate the recorded outcome for C=C1C[C@@]23CC[C@H]4[C@@](C)(CCC[C@@]4(C)C(=O)O[C@@H]4O[C@H](CO)[C@@H](O)[C@H](O)[C@H]4O)[C@@H]2CC[C@]1(O[C@@H]1O[C@H](CO)[C@@H](O)[C@H](O[C@@H]2O[C@H](CO)[C@@H](O)[C@H](O)[C@H]2O)[C@H]1O[C@@H]1O[C@H](CO)[C@@H](O)[C@H](O)[C@H]1O)C3 from this test.
[out] 0.0

[in] I'd appreciate the recorded outcome for CC/C=C1/OC(=O)c2ccccc21 from this test.
[out] 0.0

[in] I'd appreciate the recorded outcome for CCC1NC(=O)c2cc(S(N)(=O)=O)c(Cl)cc2N1 (configuration not stated) from this test.
[out] 0.0

The measured values listed here are drawn from PubChem BioAssay (Tox21).
